Assayed System: whole cell extract (WCE) human TDP1 (Homo sapiens (Human))
Sequence (Q9NUW8 whole entry): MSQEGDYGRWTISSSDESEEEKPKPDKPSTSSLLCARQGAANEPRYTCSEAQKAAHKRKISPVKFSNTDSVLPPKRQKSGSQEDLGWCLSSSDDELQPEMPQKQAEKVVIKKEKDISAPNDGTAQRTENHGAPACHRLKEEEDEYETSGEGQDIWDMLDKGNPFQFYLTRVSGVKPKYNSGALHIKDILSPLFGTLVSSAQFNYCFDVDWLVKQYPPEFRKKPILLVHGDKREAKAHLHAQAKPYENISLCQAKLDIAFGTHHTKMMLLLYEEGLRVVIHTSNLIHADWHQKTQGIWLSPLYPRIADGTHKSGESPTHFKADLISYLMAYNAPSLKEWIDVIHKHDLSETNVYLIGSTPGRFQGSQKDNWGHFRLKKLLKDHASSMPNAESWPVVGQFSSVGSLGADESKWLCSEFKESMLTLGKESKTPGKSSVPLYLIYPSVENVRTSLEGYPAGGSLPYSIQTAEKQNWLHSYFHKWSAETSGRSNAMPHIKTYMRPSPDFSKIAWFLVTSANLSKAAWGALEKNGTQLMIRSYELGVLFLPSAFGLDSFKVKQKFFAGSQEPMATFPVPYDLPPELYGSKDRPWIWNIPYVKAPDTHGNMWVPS
Experimental Details: gel based whole cell extract (WCE) human TDP1 fluorescence assay
Cond: read-out: WCE hTDP1 IC50
Experimental Readout: IC50

Q: What value of IC50 has been reported for the following molecule? O=C(O)c1ccc(Nc2c(-c3ccc(-c4ccccc4)cc3)nc3ccc(C(=O)O)cn23)cc1 [Compound 8n]
Ans: > 100 µM

====

Assayed System: TDP2 (Homo sapiens (Human))
Sequence (O95551 whole entry, species assumed): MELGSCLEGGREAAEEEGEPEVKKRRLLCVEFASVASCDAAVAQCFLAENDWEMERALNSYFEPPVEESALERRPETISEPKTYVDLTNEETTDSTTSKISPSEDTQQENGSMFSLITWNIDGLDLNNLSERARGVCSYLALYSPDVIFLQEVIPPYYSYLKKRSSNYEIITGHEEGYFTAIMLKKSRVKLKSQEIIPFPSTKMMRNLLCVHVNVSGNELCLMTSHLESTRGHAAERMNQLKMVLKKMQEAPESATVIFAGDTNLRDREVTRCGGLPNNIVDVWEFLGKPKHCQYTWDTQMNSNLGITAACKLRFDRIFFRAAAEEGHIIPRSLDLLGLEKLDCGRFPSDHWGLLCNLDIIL
Experimental Details: gel-based TDP2 fluorescence assay in vitro
Assay type: biochemical
Cond: Table 9, fluorosulfates and sulfonyl fluorides; read-out: TDP2 IC50
Experimental Readout: IC50

Below are worked cases with known answers.
1. O=C(O)c1ccc(Nc2c(-c3cccc(OS(=O)(=O)F)c3)nc3cc(-c4ccccc4)ccn23)cc1 = > 100 µM
2. O=C(O)c1ccc(N(c2c(-c3ccccc3OS(=O)(=O)F)nc3cc(-c4ccccc4)ccn23)S(=O)(=O)F)cc1 = 45.5 µM
3. O=C(O)c1ccc(Nc2c(-c3ccc(OS(=O)(=O)F)cc3)nc3cc(-c4ccccc4)ccn23)cc1 = > 100 µM
4. O=C(O)c1ccc(Nc2c(-c3ccccc3)nc3ccc(OS(=O)(=O)F)cn23)cc1 = 65.8 µM

Pending molecule:
Q: What value of IC50 has been reported for the following molecule? O=S(=O)(F)c1ccc(Nc2c(-c3ccccc3)nc3ccccn23)cc1
Ans: > 100 µM
